// provenance: patent US5591734A

target under test: Na^+,K^+ -ATPase receptor (Homo sapiens)
Construct: receptor purified according to Jorghensen (Jorghensen P., BBA, 1974, 356, 36); from tissue; kidney outer medulla inferred from the cited Jorgensen method
assay text: displacement of the specific ^3 H-ouabain binding from the purified Na^+,K^+ -ATPase receptor
assay context: ^3 H-ouabain displacement, read-out: Binding ^3 H-Ouab. Displacement log IC50 (converted)
attribute measured: IC50 (nM)
Give bare numbers, in nM.

{"compound": "C[C@]12CC[C@H](O)C[C@H]1CC[C@@H]1[C@@H]2CC[C@]2(C)[C@@](O)(c3ccnnc3)CC[C@]12O [Comp. I-n]", "IC50 [nM]": 2510}
{"compound": "C[C@]12CCC(=O)C[C@H]1CC[C@@H]1[C@@H]2CC[C@]2(C)[C@@](O)(c3ccoc3)CC[C@]12O [Comp. I-j]", "IC50 [nM]": 3980}
{"compound": "C[C@]12CC[C@H](OCCCNC(=N)N)C[C@H]1CC[C@@H]1[C@@H]2CC[C@]2(C)[C@@](O)(c3ccoc3)CC[C@]12O [Comp. I-y]", "IC50 [nM]": 501}
{"compound": "C[C@]12CC[C@H](OCCO)C[C@H]1CC[C@@H]1[C@@H]2CC[C@]2(C)[C@@](O)(c3ccoc3)CC[C@]12O [Comp. I-b]", "IC50 [nM]": 3160}
{"compound": "C[C@]12CC[C@H](OCCN3CCCC3)C[C@H]1CC[C@@H]1[C@@H]2CC[C@]2(C)[C@@](O)(c3ccoc3)CC[C@]12O [Comp. I-d]", "IC50 [nM]": 631}

Okay, next one:
Dear colleague, I am looking for the recorded IC50 of the following compound: C[C@]12CC[C@H](OCCCN)C[C@H]1CC[C@@H]1[C@@H]2CC[C@]2(C)[C@@](O)(c3ccoc3)CC[C@]12O [Comp. I-c]
501

---

target under test: purified Na^+,K^+ -ATPase (Homo sapiens, UniProt P05023)
Construct: receptor purified according to Jorghensen (Jorghensen P., BBA, 1974, 356, 36); from tissue; kidney outer medulla inferred from the cited Jorgensen method
assay text: biochemical
assay context: purified Na^+,K^+ -ATPase; ^32 P-ATP hydrolysis; read-out: Inhibitory Activity log IC50 (converted)
attribute measured: IC50 (µM)
One number for each entry, in µM.

{"molecule": "C[C@]12CC[C@H](OCCCN)C[C@H]1CC[C@@H]1[C@@H]2CC[C@]2(C)[C@@](O)(c3ccoc3)CC[C@]12O [Comp. I-c]", "meas value": 7.94}
{"molecule": "CNCCO[C@H]1CC[C@@]2(C)[C@H](CC[C@@H]3[C@@H]2CC[C@]2(C)[C@@](O)(c4ccoc4)CC[C@]32O)C1 [Comp. I-x]", "meas value": 10}
{"molecule": "C[C@]12CCC(=NN=C(N)N)C[C@H]1CC[C@@H]1[C@@H]2CC[C@]2(C)[C@@](O)(c3ccoc3)CC[C@]12O [Comp. I-k]", "meas value": 15.8}

Okay, next one:
Dear colleague, I am looking for the recorded IC50 of the following molecule: C[C@]12CC[C@H](OCCN3CCCC3)C[C@H]1CC[C@@H]1[C@@H]2CC[C@]2(C)[C@@](O)(c3ccoc3)CC[C@]12O [Comp. I-d]
15.8

---

target under test: purified Na^+,K^+ -ATPase (Homo sapiens, UniProt P05023)
Construct: receptor purified according to Jorghensen (Jorghensen P., BBA, 1974, 356, 36); from tissue; kidney outer medulla inferred from the cited Jorgensen method
assay text: biochemical
assay context: purified Na^+,K^+ -ATPase; ^32 P-ATP hydrolysis; read-out: Inhibitory Activity log IC50 (converted)
Excerpt: To test the affinity for the receptor site of the Na^+,K^+ -ATPase and the inhibitory activity on the enzyme, the following tests were used: a) displacement of the specific ^3 H-ouabain binding from the Na^+,K^^+ -ATPase receptor purified according to Jorghensen (Jorghensen P., BBA, 1974, 356, 36) and Erdmann (Erdmann E. et al., Arzneim. […]
Hi there, I'd appreciate the recorded IC50 for every entry that follows.
One number for each entry, in µM.

{"line notation": "C[C@]12CC[C@H](OCCOCCN3CCCC3)C[C@H]1CC[C@@H]1[C@@H]2CC[C@]2(C)[C@@](O)(c3ccoc3)CC[C@]12O", "unit text": "µM", "IC50": 3.98}
{"line notation": "C[C@]12CC[C@H](OCCO)C[C@H]1CC[C@@H]1[C@@H]2CC[C@]2(C)[C@@](O)(c3ccoc3)CC[C@]12O", "unit text": "µM", "IC50": 25.1}
{"line notation": "C[C@]12CC[C@H](SCCCN)C[C@H]1CC[C@@H]1[C@@H]2CC[C@@]2(C)[C@@]13O[C@@H]3C[C@]2(O)c1ccoc1", "unit text": "µM", "IC50": 31.6}
{"line notation": "CO[C@]1(c2ccoc2)CC[C@]2(O)[C@@H]3CC[C@@H]4C[C@@H](OCCN5CCCC5)CC[C@]4(C)[C@H]3CC[C@]12C", "unit text": "µM", "IC50": 25.1}
{"line notation": "C[C@]12CC[C@H](O)C[C@H]1CC[C@@H]1[C@@H]2CC[C@]2(C)[C@@](O)(c3ccoc3)CC[C@]12O", "unit text": "µM", "IC50": 31.6}
{"line notation": "C[C@]12CCC(=O)C[C@H]1CC[C@@H]1[C@@H]2CC[C@]2(C)[C@@](O)(c3ccoc3)CC[C@]12O", "unit text": "µM", "IC50": 79.4}

Okay, next one:
Dear colleague, I am looking for the recorded IC50 of the following compound: "C[C@]12CC[C@H](O)C[C@H]1CC[C@@H]1[C@@H]2CC[C@]2(C)[C@@](O)(c3ccnnc3)CC[C@]12O"
25.1
